# pKi per entry
- study.system: D-amino-acid oxidase (Homo sapiens, UniProt P14920, Y224A)
- Sequence (P14920 whole entry Y224A): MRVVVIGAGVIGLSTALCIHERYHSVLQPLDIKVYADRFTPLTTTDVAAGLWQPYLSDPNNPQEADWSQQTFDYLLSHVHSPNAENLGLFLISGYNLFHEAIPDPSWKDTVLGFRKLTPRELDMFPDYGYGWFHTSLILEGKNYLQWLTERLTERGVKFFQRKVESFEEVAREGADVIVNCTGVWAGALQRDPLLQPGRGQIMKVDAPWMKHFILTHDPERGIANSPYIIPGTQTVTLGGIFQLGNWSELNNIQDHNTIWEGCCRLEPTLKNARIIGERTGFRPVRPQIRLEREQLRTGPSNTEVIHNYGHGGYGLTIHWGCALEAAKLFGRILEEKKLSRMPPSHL
- experimental.details: Inhibition of human recombinant N-terminal His-tagged DAO Y224A mutant expressed in Escherichia coli BL21(DE3) using D-alanine as substrate after 10 mins by Lineweaver-Burk plot analysis
pKi: −log10 of the molar value.
parameter: pKi

{"molecule": "O=C(O)c1ccccc1", "observed.measurement": 4.43}
{"molecule": "O=C(O)c1cc2c(s1)CCC2", "observed.measurement": 5.34}
{"molecule": "O=c1oc2ccccc2cc1O [3-HYDROXYCOUMARIN]", "observed.measurement": 5.43}

---

- study.system: Serine racemase (Homo sapiens)
- Sequence (Q9GZT4 whole entry): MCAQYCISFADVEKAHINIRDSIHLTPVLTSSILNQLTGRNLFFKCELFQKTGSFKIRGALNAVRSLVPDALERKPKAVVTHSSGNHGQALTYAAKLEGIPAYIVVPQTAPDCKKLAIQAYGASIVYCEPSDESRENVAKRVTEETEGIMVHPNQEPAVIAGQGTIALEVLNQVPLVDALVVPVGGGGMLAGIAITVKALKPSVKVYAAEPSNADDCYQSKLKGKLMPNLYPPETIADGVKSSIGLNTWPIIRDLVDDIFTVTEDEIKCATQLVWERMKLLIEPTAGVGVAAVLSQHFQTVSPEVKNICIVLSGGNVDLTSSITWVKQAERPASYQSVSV
- experimental.details: Inhibition of human recombinant N-terminal His-tagged serine racemase expressed in Escherichia coli BL21(DE3) using L-serine as substrate after 10 mins by fluorescence assay

{"compound": "C/C=C/C(=O)O", "IC50": "> 10 mM"}
{"compound": "CCCc1sc(C(=O)O)cc1CC", "IC50": "> 10 mM"}
{"compound": "CCc1cc(C(=O)O)sc1C", "IC50": "5.72 mM"}
{"compound": "O=C(O)c1cc2c(s1)CCCC2", "IC50": "5.01 mM"}
{"compound": "O=C(O)c1cc2occc2[nH]1", "IC50": "> 0.1 mM"}
{"compound": "Cc1ccccc1-c1nnc(O)o1", "IC50": "> 5 mM"}
{"compound": "O=c1[nH]nc(-c2ccccc2)o1", "IC50": "> 10 mM"}
{"compound": "CCCc1cc(C(=O)O)sc1C", "IC50": "5.16 mM"}
{"compound": "O=c1oc2ccccc2cc1O [3-HYDROXYCOUMARIN]", "IC50": "> 10 mM"}
{"compound": "O=C(O)C(O)C(O)C(=O)O (stereo not given)", "IC50": "2.82 mM"}
{"compound": "O=C(O)c1ccccc1", "IC50": "> 10 mM"}
{"compound": "O=C(O)c1ccsc1", "IC50": "8.21 mM"}
{"compound": "O=C(O)CC(=O)O", "IC50": "0.0249 mM"}
{"compound": "O=C(O)c1cc2c(s1)CCC2", "IC50": "5.28 mM"}
{"compound": "O=C(O)/C=C/c1cccc(O)c1", "IC50": "8.39 mM"}

---

- study.system: D-amino-acid oxidase (Homo sapiens)
- experimental.details: Inhibition of human recombinant N-terminal His-tagged DAO expressed in Escherichia coli BL21(DE3) using D-alanine as substrate by Lineweaver-Burk plot analysis
pKi: −log10 of the molar value.

{"compound": "O=C(O)c1cc2c(s1)CCC2", "study.system": "D-amino-acid oxidase (Homo sapiens)", "pKi": 5.00}
{"compound": "O=c1oc2ccccc2cc1O [3-HYDROXYCOUMARIN]", "study.system": "D-amino-acid oxidase (Homo sapiens)", "pKi": 6.81}
{"compound": "O=C(O)c1ccccc1", "study.system": "D-amino-acid oxidase (Homo sapiens)", "pKi": 4.96}

---

- study.system: D-amino-acid oxidase (Homo sapiens, UniProt P14920)
- Sequence (P14920 whole entry): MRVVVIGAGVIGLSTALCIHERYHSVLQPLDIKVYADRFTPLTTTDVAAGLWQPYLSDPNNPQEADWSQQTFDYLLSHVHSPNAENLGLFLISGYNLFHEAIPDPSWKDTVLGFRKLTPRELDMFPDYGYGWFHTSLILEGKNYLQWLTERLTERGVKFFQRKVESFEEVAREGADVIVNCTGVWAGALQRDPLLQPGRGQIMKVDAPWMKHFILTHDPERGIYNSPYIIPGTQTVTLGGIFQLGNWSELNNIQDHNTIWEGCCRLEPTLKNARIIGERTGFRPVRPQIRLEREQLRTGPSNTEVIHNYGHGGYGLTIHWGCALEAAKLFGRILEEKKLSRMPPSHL
- experimental.details: Inhibition of human recombinant N-terminal His-tagged DAO expressed in Escherichia coli BL21(DE3) using D-alanine as substrate by colorimetric assay
pIC50: −log10 of the molar value.
# pIC50 per entry

{"compound": "C/C=C/C(=O)O", "limit.qualifier": "=", "pIC50": 3.22}
{"compound": "O=c1oc2ccccc2cc1O [3-HYDROXYCOUMARIN]", "limit.qualifier": "=", "pIC50": 6.03}
{"compound": "CCCc1cc(C(=O)O)sc1C", "limit.qualifier": "=", "pIC50": 2.43}
{"compound": "O=C(O)c1ccccc1", "limit.qualifier": "=", "pIC50": 4.18}
{"compound": "O=c1[nH]nc(-c2ccccc2)o1", "limit.qualifier": "=", "pIC50": 3.44}
{"compound": "O=C(O)c1cc2c(s1)CCC2", "limit.qualifier": "=", "pIC50": 4.22}
{"compound": "CCc1cc(C(=O)O)sc1C", "limit.qualifier": "=", "pIC50": 2.96}
{"compound": "O=C(O)c1cc2c(s1)CCCC2", "limit.qualifier": "=", "pIC50": 2.84}
{"compound": "CCCc1sc(C(=O)O)cc1CC", "limit.qualifier": "<", "pIC50": 2.00}
{"compound": "O=C(O)/C=C/c1cccc(O)c1", "limit.qualifier": "<", "pIC50": 2.00}
{"compound": "Cc1ccccc1-c1nnc(O)o1", "limit.qualifier": "=", "pIC50": 3.53}
